Items are presented alongside their recorded remaining at 1 h, 50 µM.
Procedure Summary: Metabolic stability in human plasma at 50 uM measured after 60 mins by LC-MS/MS analysis
Format: ADME, cell-free
Test Conditions: read-out: Stability

{"Chemical Structure": "C[Si]1(C)CCN(Cc2cc(-c3ccc(Cl)cc3)n(-c3ccc(Cl)cc3)n2)CC1", "remaining at 1 h, 50 µM / %": 100}
{"Chemical Structure": "C[Si]1(C)CCN(Cc2nn(-c3ccc(Cl)cc3Cl)c(-c3ccc(Cl)cc3)c2CO)CC1", "remaining at 1 h, 50 µM / %": 88.1}
{"Chemical Structure": "Clc1ccc(-c2cc(CN3CCCCC3)nn2-c2ccc(Cl)cc2)cc1", "remaining at 1 h, 50 µM / %": 91.7}
{"Chemical Structure": "C[Si]1(C)CCN(C(=O)c2cc(-c3ccc(Cl)cc3)n(-c3ccc(Cl)cc3)n2)CC1", "remaining at 1 h, 50 µM / %": 89.7}
{"Chemical Structure": "C[Si]1(C)CCN(NCc2cc(-c3ccc(Cl)cc3)n(-c3ccc(Cl)cc3)n2)CC1", "remaining at 1 h, 50 µM / %": 100}
{"Chemical Structure": "Cc1c(CN2CC[Si](C)(C)CC2)nn(-c2ccc(Cl)cc2Cl)c1-c1ccc(Cl)cc1", "remaining at 1 h, 50 µM / %": 99.2}
{"Chemical Structure": "Cc1c(CN2CCN(C)CC2)cc(-c2ccc(Cl)cc2)n1-c1ccc(Cl)cc1", "remaining at 1 h, 50 µM / %": 100}
